- System: Saccharomyces cerevisiae;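 further: PSI is a weighted mean of sequencing reads over stability bins, variants kept only with over 10 reads, mCherry proximal and sfGFP distal, peptide attached via GGGS linker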
- Method Notes: protein stability index of tFT-peptide fusion (C-terminal peptide) (PSI (0-1 scale)); higher = more stable (slower turnover)
- Measurement Conditions: genetic background: wild type; temperature: 30 C
Reported Endpoint: protein stability index
Reply with just the number.

Find the recorded protein stability index belonging to MWRWASKCRFSM and report it. 0.367

Find the recorded protein stability index belonging to DWCACFFILLLA and report it. 0.152

Find the recorded protein stability index belonging to QKNKKKKQKKEK and report it. 0.717

Find the recorded protein stability index belonging to LLANYQRPSPLN and report it. 0.705

Find the recorded protein stability index belonging to RPTRSLYLLPLI and report it. 0.699

Find the recorded protein stability index belonging to VVLRCGCLVFIN and report it. 0.134

Find the recorded protein stability index belonging to TGVGRLGYRFVV and report it. 0.588

Find the recorded protein stability index belonging to TGRQQTCRIIIE and report it. 0.687

Find the recorded protein stability index belonging to RRGLIFFLCCPA and report it. 0.466

Find the recorded protein stability index belonging to PPFPPDTLPLLP and report it. 0.746

Find the recorded protein stability index belonging to ACKVIMSVGRRL and report it. 0.644

Find the recorded protein stability index belonging to PILSGILFMSPP and report it. 0.755

Find the recorded protein stability index belonging to PLSPPPPFPFPP and report it. 0.71

Find the recorded protein stability index belonging to LPSLPPPPSPSS and report it. 0.641

Find the recorded protein stability index belonging to RPSTHPPATPPR and report it. 0.695

Find the recorded protein stability index belonging to LVRGGHRLSFRL and report it. 0.732

Find the recorded protein stability index belonging to KNNKEKQKKKKR and report it. 0.663

Find the recorded protein stability index belonging to PVPNPPPAPRSS and report it. 0.698

Find the recorded protein stability index belonging to GTTLDEPGESGR and report it. 0.621

Find the recorded protein stability index belonging to THRNEKQGTVTY and report it. 0.651

Find the recorded protein stability index belonging to WSIGGKSFVGIA and report it. 0.676

Find the recorded protein stability index belonging to SPPPSVCPRFPI and report it. 0.761

Find the recorded protein stability index belonging to TYLSAWQFCVAS and report it. 0.579

Find the recorded protein stability index belonging to GGGGRAALRWYG and report it. 0.651

Find the recorded protein stability index belonging to LISNTGTKWAMI and report it. 0.674

Find the recorded protein stability index belonging to NKYEMRDDTMNI and report it. 0.681

Find the recorded protein stability index belonging to PGSKLGPAASRG and report it. 0.663

Find the recorded protein stability index belonging to PPSLGPHSTSCD and report it. 0.715

Find the recorded protein stability index belonging to SLRPSELFRPLN and report it. 0.724

Find the recorded protein stability index belonging to LFYHLFWLFCSC and report it. 0.634

Find the recorded protein stability index belonging to PRHCYIPLPLLP and report it. 0.661

Find the recorded protein stability index belonging to MHGVSSGSSLVN and report it. 0.63

Find the recorded protein stability index belonging to KSKKQYTKKTRK and report it. 0.709

Find the recorded protein stability index belonging to LGGGGGGGACGE and report it. 0.655

Find the recorded protein stability index belonging to GRRRVGAVVEGV and report it. 0.641

Find the recorded protein stability index belonging to KDKRNEGSGLCK and report it. 0.645

Find the recorded protein stability index belonging to TIATASWILRRL and report it. 0.624

Find the recorded protein stability index belonging to KTVPRMESRVRA and report it. 0.718

Find the recorded protein stability index belonging to RFPLTPSPLRAT and report it. 0.695

Find the recorded protein stability index belonging to GWCALGVRAILY and report it. 0.651

Find the recorded protein stability index belonging to YGKENGNRNTGR and report it. 0.621

From: the supplement of paper PMC10724198
